test system: HT29 colon; experiment: NCI tumour cell line growth inhibition, 48 h
endpoint: TGI

The cases that follow already have their TGI on record.
* O=C(O)CNS(=O)(=O)c1ccc(NC(=O)c2ccc([N+](=O)[O-])cc2)cc1 | > 100 µM
* O=C(CCc1nc(=S)[nH][nH]1)Nc1ccccc1Cl | > 100 µM
* N#C/C(=C/NC(N)=S)C(N)=O | > 100 µM
* NNC(=S)N/N=C(/C(=O)Nc1ccc(Cl)c(Cl)c1)C(C1OC(=O)c2ccccc21)[N+](=O)[O-] (stereo unspecified) | > 100 µM
* COc1ccc(/C=C/c2c(C(=O)/C=C/c3ccccc3)c(C)nc3ccccc23)cc1 | > 100 µM

Looking for the measured TGI of `CSc1nnc(SC)nn1` , can you help?
36.5 µM

Same again, this time with CCOC(=O)CCC(=O)C1c2cccc(O)c2C(=O)c2c(O)cc(C)cc21 (stereo unspecified)
7.17 µM

Quick one: CCOC(=O)CC(C)C1(C(=O)OCC)CCCCC1=O (stereo unspecified)
> 100 µM

Entry to check: `COC(=O)Nc1nc2ccc(C3(c4ccc(F)cc4)OCCO3)cc2[nH]1`
> 100 µM

And the next one, COc1cc2[nH]c3c(c2cc1OC)CCN[C@]31CC[C@]2(CC3c4c(cc(OC)c(O)c42)CCN3C)C[C@H]1OC (stereo partly specified) ?
63.3 µM

Try this compound too: `CC(C)c1ccc(-c2cc(-c3cn[nH]c3-c3ccccn3)ccn2)cc1`
> 19.6 µM

----------
The following compounds are shown together with reported TGI values.
test system: A498 renal; assay: NCI tumour cell line growth inhibition, 48 h

Some solved cases for reference:
* Cn1c([C@H](C#N)c2ncccc2[N+](=O)[O-])nc2ccccc21 | > 100 µM
* CCOC(=O)CCC(=O)C1c2cccc(O)c2C(=O)c2c(O)cc(C)cc21 (configuration not stated) | 4.75 µM
* CC/C=C\C[C@H](O)C/C=C1/C(=O)C=C[C@@H]1C/C=C\CCCC(=O)OC | 14.4 µM
* CCOC(=O)C1SC(=Nc2ccc(C)c(C)c2)N=C1C (configuration not stated) | > 100 µM
* CC(=O)ONC(C(=O)C(C)(C)C)C(=O)C(C)(C)C | > 100 µM
* O=c1cc(N2CCCC2)[nH]c(=O)n1-c1cccc(Cl)c1 | > 100 µM
* CCCC(CCC)NCC(O)c1cc(-c2ccc(C(F)(F)F)cc2)nc(C(F)(F)F)c1 (configuration not stated) | 2.67 µM
* COc1ccc(/C=C/c2c(C(=O)/C=C/c3ccccc3)c(C)nc3ccccc23)cc1 | 3.15 µM

Entry COC(=O)C(CC(=O)Nc1ccc(C)cc1)C(=O)C(=O)Nc1c(C(C)C)cccc1C(C)C (configuration not stated) has what TGI?
> 100 µM

What about this compound? `Nc1nc(-[n+]2ccc(-c3ccncc3)cc2)nc(Cl)c1Cl`
> 100 µM

Try NNC(=S)N/N=C(/C(=O)Nc1ccc(Cl)c(Cl)c1)C(C1OC(=O)c2ccccc21)[N+](=O)[O-] (configuration not stated) next.
> 100 µM

Now give it for `CCOC(=O)Cn1c(=O)ccn(COCCO)c1=O` too.
> 100 µM

----------
test system: SK-MEL-28 melanoma; experiment: NCI tumour cell line growth inhibition, 48 h
endpoint: TGI

Known results for compounds:
• CCOC(=O)c1ccc(NCc2ccc3oc(=O)c(-c4ccccc4)nc3c2)cc1 = 87.3 µM
• Nc1nc(Nc2cccnc2)sc1C(=O)c1ccccc1F = 22.3 µM
• COc1cc(-c2nc3ccccn3c2/N=C/c2cc(Br)cc(Br)c2O)ccc1O = 40.7 µM

# input compound: `Cn1c([C@H](C#N)c2ncccc2[N+](=O)[O-])nc2ccccc21` ; wanted: its TGI
> 100 µM

Also `CCN1CCN(c2nc3ccccc3c3c2CCOc2ccccc2-3)CC1` , if possible.
32.4 µM

Next compound: CC1(C)OC(=O)N(c2ccccc2)C12C=Cc1cc([N+](=O)[O-])ccc1O2 (stereo unspecified)
> 100 µM

Repeat with `O=C1NC(=S)NC(=O)C1C(c1ccc(O)cc1)C1C(=O)NC(=S)NC1=O`
> 100 µM

// next record COC(=O)C(CC(=O)Nc1ccc(C)cc1)C(=O)C(=O)Nc1c(C(C)C)cccc1C(C)C (stereo unspecified)
> 100 µM

Okay, and Nc1nc([O-])c2c(n1)[n+](C1OC(CO)C(O)C1O)cn2CCO (stereo unspecified) ?
> 100 µM

Then this compound: `Clc1cc(Cl)c2ns[s+]c2c1Cl`
> 100 µM

Moving on to `C1=Cc2cc3c(c4nccc(c24)N1)OCO3`
> 71 µM

----------
system: DMS 273 small cell lung; experiment: NCI tumour cell line growth inhibition, 48 h
endpoint: TGI (µM)
# number only, unit µM dropped from output

* O=C1c2ccsc2C(=O)c2sc(CO)cc21 | 0.115
* O=C(Nc1ccccc1-c1nc2ccccc2[nH]c1=O)c1ccccc1 | 52.6
* COc1ccc(C2=C(Cl)c3cc(OC)c(OC)cc3C2Cl)cc1 (stereo not given) | 39.5

As a next step, examine the compound that follows.
Consider the compound `C=C(C)CCN[Si](c1ccccc1)(c1ccccc1)C(C)(C)C` and give its measured TGI.
37.6

----------
Quick reference: TGI of the listed items.
system: OVCAR-3 ovarian; test: NCI tumour cell line growth inhibition, 48 h
State just the number; it will be interpreted in µM.

Answered examples (5):
* COc1ccc(C2=C(Cl)c3cc(OC)c(OC)cc3C2Cl)cc1 (stereo not given) | 30.9
* Cn1c(O)c(C(=O)NC2CCCCC2)c(=O)n(C)c1=S | 26.6
* COc1cc2ncnc(-n3ncc4cc(NC(=O)Nc5ccccc5)ccc43)c2cc1OC | 13.1
* COC(=O)[C@@]12C(=O)C=CC(=O)C1C1C(=CC2C)OC2OC3(CCCCC3)OC21 (stereo not given in full) | 33.8
* CCOC(=O)c1cn2c(n1)sc1cc(Cl)ccc12 | 64.5

Let us move to another entry and its TGI.
TGI for `COc1cc(OC)c(C(=O)/C=C/c2cccc(C(F)(F)F)c2)c(OC)c1` ?
6.89

----------
Items are presented alongside their recorded TGI.
system: HL-60(TB) leukemia; experiment: NCI tumour cell line growth inhibition, 48 h
Respond with the bare value in µM.

Some solved cases for reference:
• S=c1ssc(N2CCOCC2)c1Cl = 63.3
• O=C(c1cccs1)N1CCc2ccccc2C1 = 76

Next up:
So what does the record say about TGI for COC(=O)[C@@]12C(=O)C=CC(=O)C1C1C(=CC2C)OC2OC3(CCCCC3)OC21 (stereo partly drawn) ?
15.7

----------
system: HOP-92 NSCLC; assay: NCI tumour cell line growth inhibition, 48 h; in the data active means GI50 below about 0.43 µM; inactive means the rest
Tick one outcome: true for active, false for inactive

- CCCC(CCC)NCC(O)c1cc(-c2ccc(C(F)(F)F)cc2)nc(C(F)(F)F)c1 (stereo unspecified): false
- CCOC(=O)C1CCN(S(=O)(=O)/N=C2/NC(=O)NC2=C(Cl)Cl)CC1: false
- CC/C=C\C[C@H](O)C/C=C1/C(=O)C=C[C@@H]1C/C=C\CCCC(=O)OC: false
- Cc1ccc(NC(=O)c2cccc(C(C)(C)C#N)c2)cc1Nc1ccc2ncn(C)c(=O)c2c1: true
- Cc1cc(C(=O)Nc2ccc3cc(CN4CCOCC4)ccc3n2)c(C)n1-c1ccccc1: false

Hey, what did the test say about `COc1cc2oc(-c3ccc(O)cc3)c(OC)c(=O)c2c(O)c1OC` ?
false

Next: `CC1=CC(=O)C=CC1=O`
false

Try this compound next: `COc1ccc(C[N+](C)(C)N)cc1OC`
false

For O=c1cc(NCC(O)CN2CCCC2)n(Cc2ccccc2)c(=O)n1Cc1ccccc1 (stereo unspecified) then?
false

Proceed to `COc1c(C(=O)/C=C/c2ccccc2)c(O)cc2occc12`
false

And what about the compound `COC(=O)Nc1nc2ccc(C3(c4ccc(F)cc4)OCCO3)cc2[nH]1` ?
true

----------
system: MDA-MB-435; assay: NCI tumour cell line growth inhibition, 48 h
Measured TGI accompanies every entry in the list below.

• NS(=O)(=O)c1ccc(-c2ccc3c(NC(=O)C4CC4)n[nH]c3c2)cc1 = > 25 µM
• CN(C)CCCN=c1c2ccccc2n(O)c2ccccc12 = > 100 µM
• c1ccc(Sc2ccc(Cc3nc4cc5ccccc5cc4[nH]3)cc2)cc1 = > 67.7 µM
• CC(=O)Oc1ccc2cc(-c3ccccc3OC(C)=O)c(=O)oc2c1 = > 100 µM
• COc1cc2cc3c4cc(OC)c(OC)cc4cc[n+]3c(C)c2cc1OC (tested in a mixture with another compound) = > 100 µM

Let us move to another entry and its TGI.
Param item = `CCC(=O)Oc1ccc2c(c1)c(=O)c1c(NCCCN(C)C)ccc3nnn2c31` ; retrieve measured TGI.
18.7 µM
